Test system: Aspergillus niger
Experiment: Antifungal activity against Aspergillus niger after 3 to 4 days by serial dilution method
Type: functional
quantity_measured: inhibition zone (IZ) (mm)
One number for each entry, in mm.

[
  {
    "compound": "CC(=O)Nc1cccc(OCc2cc(=O)oc3ccc(Br)cc23)c1",
    "assayed_target": "Aspergillus niger",
    "inhibition zone (IZ) / mm": 20
  },
  {
    "compound": "Cc1ccc2oc(=O)cc(COc3cccc(OCc4cc(=O)oc5ccc(C)cc45)c3)c2c1",
    "assayed_target": "Aspergillus niger",
    "inhibition zone (IZ) / mm": 17
  },
  {
    "compound": "CC(=O)Nc1cccc(OCc2cc(=O)oc3ccc(Cl)cc23)c1",
    "assayed_target": "Aspergillus niger",
    "inhibition zone (IZ) / mm": 22
  },
  {
    "compound": "CCN(CC)c1cccc(OCc2cc(=O)oc3ccc4ccccc4c23)c1",
    "assayed_target": "Aspergillus niger",
    "inhibition zone (IZ) / mm": 17
  },
  {
    "compound": "CC(=O)Nc1cccc(OCc2cc(=O)oc3c2ccc2ccccc23)c1",
    "assayed_target": "Aspergillus niger",
    "inhibition zone (IZ) / mm": 19
  },
  {
    "compound": "COc1ccc2oc(=O)cc(COc3cccc(NC(C)=O)c3)c2c1",
    "assayed_target": "Aspergillus niger",
    "inhibition zone (IZ) / mm": 21
  },
  {
    "compound": "O=c1cc(COc2cccc(OCc3cc(=O)oc4ccc5ccccc5c34)c2)c2c(ccc3ccccc32)o1",
    "assayed_target": "Aspergillus niger",
    "inhibition zone (IZ) / mm": 16
  },
  {
    "compound": "O=c1cc(COc2cccc(O)c2)c2ccc3ccccc3c2o1",
    "assayed_target": "Aspergillus niger",
    "inhibition zone (IZ) / mm": 17
  }
]

Each compound below has a recorded value; state its inhibition zone (IZ).
1. CCN(CC)c1cccc(OCc2cc(=O)oc3ccc(Br)cc23)c1
2. Cc1ccc2c(COc3cccc(O)c3)cc(=O)oc2c1
3. O=c1cc(COc2cccc(OCc3cc(=O)oc4c3ccc3ccccc34)c2)c2ccc3ccccc3c2o1
4. COc1ccc2oc(=O)cc(COc3cccc(O)c3)c2c1

20
19
15
20

Please give inhibition zone (IZ) for each item listed below.
1. CCN(CC)c1cccc(OCc2cc(=O)oc3ccc(Cl)cc23)c1
2. O=c1cc(COc2cccc(O)c2)c2cc(Cl)ccc2o1
3. O=c1cc(COc2cccc(OCc3cc(=O)oc4ccc(Cl)cc34)c2)c2cc(Cl)ccc2o1
4. O=c1cc(COc2cccc(O)c2)c2c(ccc3ccccc32)o1
5. O=c1cc(COc2cccc(OCc3cc(=O)oc4ccc(Br)cc34)c2)c2cc(Br)ccc2o1
6. CCN(CC)c1cccc(OCc2cc(=O)oc3ccc(C)cc23)c1
7. OC(Cn1cncn1)(Cn1cncn1)c1ccc(F)cc1F [FLUCONAZOLE]
8. CC(=O)Nc1cccc(OCc2cc(=O)oc3ccc(C)cc23)c1

[22, 24, 24, 17, 19, 18, 24, 20]

Batch: inhibition zone (IZ) for all items listed.
1. Cc1ccc2oc(=O)cc(COc3cccc(O)c3)c2c1
2. COc1ccc2oc(=O)cc(COc3cccc(OCc4cc(=O)oc5ccc(OC)cc45)c3)c2c1

1: 19; 2: 18
